# Target System: T1, 4H1864-AA
# T1 chain: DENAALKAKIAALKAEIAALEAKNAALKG
# Run Description: two-hybrid library CCmax;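 note: natural log of median RNA to DNA barcode read ratio; higher means stronger binding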
# Protocol Conditions: mean of both orientations
Readout Kind: interaction score

Answered cases to consult:
INSERT INTO assay_data (binder, recorded_number) VALUES
  ('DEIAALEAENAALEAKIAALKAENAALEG [4H171-AA]', 0.435),
  ('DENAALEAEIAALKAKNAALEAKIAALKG [4H1142-AA]', -1.38);

a: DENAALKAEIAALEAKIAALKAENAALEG [4H1579-AA]
b: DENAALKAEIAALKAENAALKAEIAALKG [4H1626-AA]
Query: a or b : whose interaction score is greater? API: response body contains the label of the selected item.
Response: a
(a: 2.38, b: -1.36)
